- TARGET_SYSTEM: Opioid receptors; mu and delta (Mus musculus) (UniProt P42866+P32300)
- Sequence (P32300 whole entry, looked up): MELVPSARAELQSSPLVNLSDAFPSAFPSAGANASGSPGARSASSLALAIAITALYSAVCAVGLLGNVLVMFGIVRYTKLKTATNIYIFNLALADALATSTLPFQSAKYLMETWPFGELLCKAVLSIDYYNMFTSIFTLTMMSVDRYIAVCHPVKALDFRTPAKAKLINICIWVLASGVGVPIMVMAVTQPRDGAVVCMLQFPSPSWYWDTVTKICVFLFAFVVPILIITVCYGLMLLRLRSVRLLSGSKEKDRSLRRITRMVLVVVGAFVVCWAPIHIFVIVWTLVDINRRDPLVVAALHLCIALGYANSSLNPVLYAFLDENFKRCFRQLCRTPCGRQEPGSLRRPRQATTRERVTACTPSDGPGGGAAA
- Sequence (P42866 whole entry, looked up): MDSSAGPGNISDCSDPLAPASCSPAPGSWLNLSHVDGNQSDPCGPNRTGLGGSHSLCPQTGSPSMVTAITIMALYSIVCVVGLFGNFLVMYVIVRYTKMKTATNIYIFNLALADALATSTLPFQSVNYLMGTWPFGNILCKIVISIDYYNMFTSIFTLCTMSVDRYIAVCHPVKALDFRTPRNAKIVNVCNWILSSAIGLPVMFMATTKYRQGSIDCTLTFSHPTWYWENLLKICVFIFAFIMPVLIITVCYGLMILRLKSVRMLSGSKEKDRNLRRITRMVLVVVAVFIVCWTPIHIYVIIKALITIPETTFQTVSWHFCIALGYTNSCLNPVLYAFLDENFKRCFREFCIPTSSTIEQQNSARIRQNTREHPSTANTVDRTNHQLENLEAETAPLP
- ASSAY_TEXT: Agonist activity at MOR/DOR in NMRI mouse frontal cortex or spinal cord networks assessed as reduction in spinal cord network activity by electrophysiology assay relative to gabapentin
- Type: functional, tissue-based
- Set-up: scale not given: the % may be the effect or the level left
Where a SMILES comes first, the peptide text is derived from it. [ ]: non-standard residue; d: D form. Dmt = Cc1cc(O)cc(C)c1C[C@H](N)C(=O)O; dNMeA = CN[C@H](C)C(=O)O; Sar = CNCC(=O)O
OBSERVED_PROPERTY: Activity (%)

| MOLECULE | RECORDED_MEASUREMENT |
| --- | --- |
| Cc1cc(O)cc(C)c1C[C@H](N)C(=O)N(C)[C@H](C)C(=O)N[C@@H](Cc1ccccc1)C(=O)N(C)CC(N)=O (H-[Dmt][dNMeA]F[Sar]-NH2) | 1 |
| C[C@H](C(=O)N[C@@H](Cc1ccccc1)C(=O)N(C)CC(N)=O)N(C)C(=O)[C@@H](N)Cc1ccc(O)cc1 (H-Y[dNMeA]F[Sar]-NH2) | 3 |
| Cc1cc(O)cc(C)c1C[C@H](N)C(=O)N(C)[C@H](C)C(=O)N[C@H]1Cc2ccccc2CN(CC(N)=O)C1=O | 21 |
| C[C@H](C(=O)N[C@H]1Cc2ccccc2CN(CC(N)=O)C1=O)N1Cc2cc(O)ccc2C[C@H](N)C1=O | 14 |

###

- TARGET_SYSTEM: UniProt P35372
- Sequence (P35372 whole entry): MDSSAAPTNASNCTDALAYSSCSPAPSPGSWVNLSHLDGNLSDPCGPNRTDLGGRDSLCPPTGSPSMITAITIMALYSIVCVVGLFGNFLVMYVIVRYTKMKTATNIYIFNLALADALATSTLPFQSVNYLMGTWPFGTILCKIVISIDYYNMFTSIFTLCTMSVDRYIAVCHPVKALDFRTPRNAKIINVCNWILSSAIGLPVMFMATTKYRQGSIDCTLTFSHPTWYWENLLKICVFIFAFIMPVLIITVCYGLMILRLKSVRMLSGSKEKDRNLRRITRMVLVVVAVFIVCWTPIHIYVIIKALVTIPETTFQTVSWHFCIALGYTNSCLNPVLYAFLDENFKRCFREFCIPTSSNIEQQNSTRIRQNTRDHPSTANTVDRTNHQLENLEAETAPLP
- ASSAY_TEXT: Agonist activity at human MOR expressed in HEK293 cell membrane assessed as inhibition of forskolin-induced cAMP accumulation by liquid scintillation counting
pEC50: −log10 of the molar value. Where a SMILES comes first, the peptide text is derived from it. [ ]: non-standard residue; d: D form. Dmt = Cc1cc(O)cc(C)c1C[C@H](N)C(=O)O; dNMeA = CN[C@H](C)C(=O)O; Sar = CNCC(=O)O

| MOLECULE | TARGET_SYSTEM | pEC50 |
| --- | --- | --- |
| Cc1cc(O)cc(C)c1C[C@H](N)C(=O)N(C)[C@H](C)C(=O)N[C@H]1Cc2ccccc2CN(CC(N)=O)C1=O | UniProt P35372 | 11.76 |
| C[C@H](C(=O)N[C@H]1Cc2ccccc2CN(CC(N)=O)C1=O)N1Cc2cc(O)ccc2C[C@H](N)C1=O | UniProt P35372 | 8.29 |
| Cc1cc(O)cc(C)c1C[C@H](N)C(=O)N(C)[C@H](C)C(=O)N[C@@H](Cc1ccccc1)C(=O)N(C)CC(N)=O (H-[Dmt][dNMeA]F[Sar]-NH2) | UniProt P35372 | 10.10 |
| Cc1cc(O)cc(C)c1C[C@H](N)C(=O)N[C@H](C)C(=O)N[C@H]1Cc2ccccc2CN(CC(N)=O)C1=O | UniProt P35372 | 10.08 |
| C[C@H](C(=O)N[C@@H](Cc1ccccc1)C(=O)N(C)CC(N)=O)N(C)C(=O)[C@@H](N)Cc1ccc(O)cc1 (H-Y[dNMeA]F[Sar]-NH2) | UniProt P35372 | 8.48 |

###

Below, each of the compounds is paired with its reported Ratio Ki value.
- Organism: Homo sapiens
- ASSAY_TEXT: Selectivity index, ratio of Ki for human DOR to Ki for human MOR by radioligand displacement assay
Where a SMILES comes first, the peptide text is derived from it. [ ]: non-standard residue; d: D form. Dmt = Cc1cc(O)cc(C)c1C[C@H](N)C(=O)O; dNMeA = CN[C@H](C)C(=O)O; Sar = CNCC(=O)O

| COMPOUND | Ratio Ki |
| --- | --- |
| Cc1cc(O)cc(C)c1C[C@H](N)C(=O)N[C@H](C)C(=O)N[C@H]1Cc2ccccc2CN(CC(N)=O)C1=O | 0.106 |
| C[C@H](C(=O)N[C@H]1Cc2ccccc2CN(CC(N)=O)C1=O)N1Cc2cc(O)ccc2C[C@H](N)C1=O | 0.059 |
| Cc1cc(O)cc(C)c1C[C@H](N)C(=O)N(C)[C@H](C)C(=O)N[C@@H](Cc1ccccc1)C(=O)N(C)CC(N)=O (H-[Dmt][dNMeA]F[Sar]-NH2) | 2.2 |
| Cc1cc(O)cc(C)c1C[C@H](N)C(=O)N(C)[C@H](C)C(=O)N[C@H]1Cc2ccccc2CN(CC(N)=O)C1=O | 0.34 |

Reference for the values: ChEMBL document CHEMBL2150869
